# credit: the Human Domainome abundance scans (Beltran et al. 2025)

B1: Cold shock protein CspB, residues 1 to 66; numbered along this chain, P41016 (parent)
chain: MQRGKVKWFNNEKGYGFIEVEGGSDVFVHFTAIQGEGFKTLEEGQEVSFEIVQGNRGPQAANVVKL

# Variants of: B1
# Measurement Notes: abundance fitness (aPCA) (normalised: wild type 0, dead -1); higher = more abundant; growth selection in yeast, the domain comes from the species named
# Condition Parameters: Bacillus caldolyticus
Reported Property: abundance fitness

[[record]]
variant_spec = "R3D"
reported_property = "abundance fitness"
result = -0.023

[[record]]
variant_spec = "K7I"
reported_property = "abundance fitness"
result = 0.02

[[record]]
variant_spec = "V6D"
reported_property = "abundance fitness"
result = -1.09

[[record]]
variant_spec = "F38T"
reported_property = "abundance fitness"
result = -0.119

[[record]]
variant_spec = "N10E"
reported_property = "abundance fitness"
result = -0.079

[[record]]
variant_spec = "G37T"
reported_property = "abundance fitness"
result = -0.069

[[record]]
variant_spec = "E42I"
reported_property = "abundance fitness"
result = -0.051

[[record]]
variant_spec = "K13I"
reported_property = "abundance fitness"
result = -0.065

[[record]]
variant_spec = "E12I"
reported_property = "abundance fitness"
result = -0.198

[[record]]
variant_spec = "T40L"
reported_property = "abundance fitness"
result = -0.087

[[record]]
variant_spec = "F38K"
reported_property = "abundance fitness"
result = -0.049

[[record]]
variant_spec = "D25N"
reported_property = "abundance fitness"
result = -0.047

[[record]]
variant_spec = "R3G"
reported_property = "abundance fitness"
result = -0.004

[[record]]
variant_spec = "E36V"
reported_property = "abundance fitness"
result = -0.003

[[record]]
variant_spec = "F27I"
reported_property = "abundance fitness"
result = -0.208

[[record]]
variant_spec = "E42K"
reported_property = "abundance fitness"
result = 0.017

[[record]]
variant_spec = "T40M"
reported_property = "abundance fitness"
result = -0.04

[[record]]
variant_spec = "I33E"
reported_property = "abundance fitness"
result = -0.477

[[record]]
variant_spec = "L41R"
reported_property = "abundance fitness"
result = -0.625

[[record]]
variant_spec = "G4M"
reported_property = "abundance fitness"
result = -0.997

[[record]]
variant_spec = "V20K"
reported_property = "abundance fitness"
result = 0.055

[[record]]
variant_spec = "V26G"
reported_property = "abundance fitness"
result = -0.573

[[record]]
variant_spec = "K5R"
reported_property = "abundance fitness"
result = -0.035

[[record]]
variant_spec = "F30N"
reported_property = "abundance fitness"
result = -0.07

[[record]]
variant_spec = "E43N"
reported_property = "abundance fitness"
result = 0.01

[[record]]
variant_spec = "E21I"
reported_property = "abundance fitness"
result = 0.034

[[record]]
variant_spec = "F17L"
reported_property = "abundance fitness"
result = -0.171

[[record]]
variant_spec = "Q34M"
reported_property = "abundance fitness"
result = 0.006

[[record]]
variant_spec = "F30D"
reported_property = "abundance fitness"
result = -0.188

[[record]]
variant_spec = "V28D"
reported_property = "abundance fitness"
result = -0.912

[[record]]
variant_spec = "F38Q"
reported_property = "abundance fitness"
result = -0.005

[[record]]
variant_spec = "D25Q"
reported_property = "abundance fitness"
result = -0.073

[[record]]
variant_spec = "N10W"
reported_property = "abundance fitness"
result = -0.122

[[record]]
variant_spec = "Y15K"
reported_property = "abundance fitness"
result = -0.189

[[record]]
variant_spec = "G23D"
reported_property = "abundance fitness"
result = 0.026

[[record]]
variant_spec = "V6E"
reported_property = "abundance fitness"
result = -1.02

